Hello, the source for this data is patent US9200171B2, in case you need it.

Experiment: Solubility C (saturated concentration at 5° C.) of compound in low-polarity solvent and product εC
Type: physicochemical
Conditions: n-decane, C at 5° C.
Overview of recorded ε · C for various molecules

molecule: CCCCC(CC)COC(=O)c1ccc(N=Nc2cc(C#N)c(N=Nc3ccc(N(CC(CC)CCCC)CC(CC)CCCC)cc3NC(C)=O)s2)cc1 (centres unmarked)
unit-info: cm⁻¹
ε · C: 4700
//
molecule: CCCCC(CC)CN(CC(CC)CCCC)c1cc(NC(C)=O)c(N=Nc2sc(C(=O)OCC)c(C)c2C(=O)OCC)cc1OC (centres unmarked)
unit-info: cm⁻¹
ε · C: 12000
//
molecule: CCCCc1ccc(N=Nc2cc(C#N)c(/N=N/c3ccc(N(CC(CC)CCCC)CC(CC)CCCC)cc3NC(C)=O)s2)cc1 (centres unmarked)
unit-info: cm⁻¹
ε · C: 1800
//
molecule: CCCCC(CC)CNc1ccc(NCC(CC)CCCC)c2c1C(=O)c1ccccc1C2=O (centres unmarked) [Comparative example compound 1, reference compound]
unit-info: cm⁻¹
ε · C: 460
